System: Nucleoprotein (Lymphocytic choriomeningitis virus (strain Armstrong)) (UniProt P09992)
Sequence (P09992 whole entry, looked up): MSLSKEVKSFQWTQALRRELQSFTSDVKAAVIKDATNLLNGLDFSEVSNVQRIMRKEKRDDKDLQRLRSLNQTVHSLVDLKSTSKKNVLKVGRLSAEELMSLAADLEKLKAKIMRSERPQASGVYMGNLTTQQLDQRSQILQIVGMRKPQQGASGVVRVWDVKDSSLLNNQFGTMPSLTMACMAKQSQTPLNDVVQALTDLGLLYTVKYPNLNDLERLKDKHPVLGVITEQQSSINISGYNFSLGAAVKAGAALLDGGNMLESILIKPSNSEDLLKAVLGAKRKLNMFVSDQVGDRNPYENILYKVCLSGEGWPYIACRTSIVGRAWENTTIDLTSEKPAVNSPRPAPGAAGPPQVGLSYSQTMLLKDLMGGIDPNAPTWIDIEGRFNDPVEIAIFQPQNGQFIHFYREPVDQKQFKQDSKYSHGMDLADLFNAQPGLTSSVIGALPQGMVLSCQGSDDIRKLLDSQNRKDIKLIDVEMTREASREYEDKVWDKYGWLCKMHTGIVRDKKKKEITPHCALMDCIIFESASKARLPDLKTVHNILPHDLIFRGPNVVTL
Experiment description: qHTS for Inhibitors of the Functional Ribonucleoprotein Complex (vRNP) of Lymphocytic Choriomeningitis Arenaviruses (LCMV): LCMV Primary Screen - GLuc reporter signal (AID 1347086); further: nearly all actives have a fitted effect of over 70% in size
Test conditions: LCMV minigenome vRNP cell assay, Gaussia luciferase reporter; series mostly up to 57.5 µM
Inconclusive results are not listed. Activity calls are given as the source filed them. The call rests on the fitted dose curve.
Classes used: yes = active, no = inactive

Molecule	Group
OC[C@H]1O[C@@H](O[C@H]2[C@@H](O)[C@@](O)(CO)O[C@@H]2CO)[C@H](O)[C@@H](O)[C@@H]1O	no
O=C1CCCCCCCCCCCCCCCO1	no
Oc1cc(O)cc(-c2cc3ccc(O)cc3o2)c1	no
NCCCCCCCCCCN	no
O=C(NCCCCN1CCOCC1)c1cc2ccccc2o1	no
CCC[C@H]1NC(=O)[C@H](C)N(C)C(=O)C(C)(C)C(=O)C(C)NC(=O)[C@H](Cc2ccc(OC)cc2)N(C)C(=O)[C@H](C(C)C)N(C)C(=O)CNC(=O)[C@H](CC(C)C)N(C)C(=O)CNC(=O)[C@H]([C@@H](C)CC)OC(=O)[C@H]1C (stereo partly specified)	no
O=C(/C=C/c1ccccc1)NCCc1cnc[nH]1	no
CCSC(=N)N	no
CC/C=C\CCOC(=O)CCCCC	no
COc1cc2c(c(OC)c1OC)-c1ccc(OC)c(=O)cc1C(N)CC2 (stereo unspecified)	yes
Nc1ncnc2c1ncn2[C@@H]1O[C@H](CO)[C@@H](O)[C@@H]1O	no
